Measurement Target: pyrimidine nucleoside phosphorylase (Geobacillus stearothermophilus)
Construct: nucleoside phosphorylase obtained by extraction/purification from Bacillus stearothermophilus TH6-2; endogenous in cells; host or cells: Bacillus stearothermophilus TH6-2 (FERM BP-2758), enzyme purified in house from the wild cells
Sequence (P77836 1-433): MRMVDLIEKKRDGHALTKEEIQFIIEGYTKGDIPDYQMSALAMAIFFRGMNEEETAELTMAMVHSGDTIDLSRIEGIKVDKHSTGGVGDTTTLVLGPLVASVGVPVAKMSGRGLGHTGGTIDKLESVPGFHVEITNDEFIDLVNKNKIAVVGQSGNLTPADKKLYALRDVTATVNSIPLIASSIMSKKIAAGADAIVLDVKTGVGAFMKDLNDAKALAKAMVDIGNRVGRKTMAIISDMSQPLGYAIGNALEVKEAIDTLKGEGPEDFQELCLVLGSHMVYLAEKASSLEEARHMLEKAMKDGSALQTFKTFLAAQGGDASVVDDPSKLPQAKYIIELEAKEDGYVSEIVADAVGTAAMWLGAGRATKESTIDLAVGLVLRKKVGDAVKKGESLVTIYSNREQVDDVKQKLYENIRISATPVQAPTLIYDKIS
Run Description: Substrate specificity: phosphorolysis of pyrimidine nucleoside substrates by purified enzyme
Assay type: biochemical, Bacillus stearothermophilus TH6-2
Measurement Conditions: within the range tested
Description: Except for using uridine in place of inosine in the substrate solution and quantitating uracil according to the HPLC method, the same method as in the above-described assay of purine nucleoside phosphorylase activity is conducted. The amount of enzyme forming 1 μmol of uracil per one minute is defined as one unit. […]
Readout Kind: Substrate specificity of pyrimidine nucleoside phosphorylase, in words

Cc1cn([C@H]2C[C@H](O)[C@@H](CO)O2)c(=O)[nH]c1=O [Thymidine]: specific
O=c1ccn([C@H]2C[C@H](O)[C@@H](CO)O2)c(=O)[nH]1 [2'-Deoxyuridine]: specific
O=c1ccn([C@@H]2O[C@H](CO)[C@@H](O)[C@H]2O)c(=O)[nH]1 [Uridine]: specific

---

Measurement Target: purine nucleoside phosphorylase (Geobacillus stearothermophilus, UniProt P77834)
Construct: nucleoside phosphorylase obtained by extraction/purification from Bacillus stearothermophilus TH6-2; endogenous in cells; host or cells: Bacillus stearothermophilus TH6-2 (FERM BP-2758), enzyme purified in house from the wild cells
Sequence (P77834 1-274): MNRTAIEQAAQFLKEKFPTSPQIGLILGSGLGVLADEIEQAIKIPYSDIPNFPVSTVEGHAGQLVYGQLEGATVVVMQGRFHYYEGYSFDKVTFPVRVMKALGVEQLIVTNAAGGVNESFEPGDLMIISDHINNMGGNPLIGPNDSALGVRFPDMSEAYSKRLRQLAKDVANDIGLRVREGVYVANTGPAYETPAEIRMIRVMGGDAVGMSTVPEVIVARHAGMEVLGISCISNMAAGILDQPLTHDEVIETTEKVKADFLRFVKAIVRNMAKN
Run Description: Substrate specificity: phosphorolysis of purine nucleoside substrates by purified enzyme
Format: biochemical, Bacillus stearothermophilus TH6-2
Measurement Conditions: 10 min; 10 mM nucleoside, 50 mM potassium dihydrogenphosphate, pH 8.0, 50° C., 10 minutes; read-out: Relative Activity
Record form. Attribute: activity at 10000 µM. Fill in for each entry.
Answers are plain numbers, in %.

Guide cases for activity at 10000 µM, answers given:
OC[C@H]1O[C@@H](n2cnc3c(O)ncnc32)[C@H](O)[C@@H]1O: 100
Nc1nc2c(ncn2[C@@H]2O[C@H](CO)[C@@H](O)[C@H]2O)c(=O)[nH]1: 84
Nc1nc2c(ncn2[C@H]2C[C@H](O)[C@@H](CO)O2)c(=O)[nH]1: 85
Nc1ncnc2c1ncn2[C@@H]1O[C@H](CO)C[C@H]1O: 0
Nc1ncnc2c1ncn2[C@H]1C[C@H](O)[C@@H](CO)O1: 0
OC[C@@H]1C[C@@H](O)[C@H](n2cnc3c(O)ncnc32)O1: 0

For the next question, use this compound.
[ask] Quick one: activity at 10000 µM for OC[C@H]1O[C@@H](n2cnc3c(O)ncnc32)C[C@@H]1O ?
[reply] 100

---

Measurement Target: pyrimidine nucleoside phosphorylase (Geobacillus stearothermophilus, UniProt P77836)
Construct: nucleoside phosphorylase obtained by extraction/purification from Bacillus stearothermophilus TH6-2; endogenous in cells; host or cells: Bacillus stearothermophilus TH6-2 (FERM BP-2758), enzyme purified in house from the wild cells
Sequence (P77836 1-433): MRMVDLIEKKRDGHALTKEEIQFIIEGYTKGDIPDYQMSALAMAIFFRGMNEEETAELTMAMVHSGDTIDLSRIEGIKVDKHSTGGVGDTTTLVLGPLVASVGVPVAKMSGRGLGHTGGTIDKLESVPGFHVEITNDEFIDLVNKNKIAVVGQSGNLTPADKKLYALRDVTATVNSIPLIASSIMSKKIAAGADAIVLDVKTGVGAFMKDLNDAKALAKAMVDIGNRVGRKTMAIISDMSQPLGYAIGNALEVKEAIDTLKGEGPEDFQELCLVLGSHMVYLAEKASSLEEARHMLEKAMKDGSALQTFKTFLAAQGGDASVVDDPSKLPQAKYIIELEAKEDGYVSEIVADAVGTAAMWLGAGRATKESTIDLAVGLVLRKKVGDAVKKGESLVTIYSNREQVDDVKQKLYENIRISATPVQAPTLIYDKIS
Run Description: Substrate specificity: phosphorolysis of pyrimidine nucleoside substrates by purified enzyme
Format: biochemical, Bacillus stearothermophilus TH6-2
Measurement Conditions: 10 mM nucleoside, 50 mM potassium dihydrogenphosphate, pH 8.0, 50° C., 10 minutes
Readout Kind: Relative Activity
For clarity, give the value followed by its unit.

O=c1ccn([C@@H]2O[C@H](CO)[C@@H](O)[C@@H]2O)c(=O)[nH]1: 0%
O=c1ccn([C@@H]2O[C@H](CO)[C@@H](O)[C@H]2O)c(=O)[nH]1: 68%
Cc1cn([C@H]2C[C@H](O)[C@@H](CO)O2)c(=O)[nH]c1=O: 67%
O=c1ccn2c(n1)O[C@H]1[C@H](O)[C@@H](CO)O[C@H]12: 0%

Take each entry in turn and give its Relative Activity.
1. Cc1cn([C@@H]2O[C@H](CO)[C@@H](O)[C@H]2O)c(=O)[nH]c1=O
2. O=c1[nH]cc([C@@H]2O[C@H](CO)[C@@H](O)[C@H]2O)c(=O)[nH]1
3. Nc1ccn([C@@H]2O[C@H](CO)[C@@H](O)[C@H]2O)c(=O)n1
4. Nc1ccn([C@H]2C[C@H](O)[C@@H](CO)O2)c(=O)n1
5. O=c1ccn([C@H]2C[C@H](O)[C@@H](CO)O2)c(=O)[nH]1

[reply]
1. 38%
2. 0%
3. 0%
4. 0%
5. 100%

---

Record form. Attribute: Amount of Base Formed. Fill in for each entry.
Measurement Target: purine nucleoside phosphorylase (Geobacillus stearothermophilus, UniProt P77834)
Construct: nucleoside phosphorylase obtained by extraction/purification from Bacillus stearothermophilus TH6-2; endogenous in cells; host or cells: Bacillus stearothermophilus TH6-2 (FERM BP-2758), enzyme purified in house from the wild cells
Run Description: Substrate specificity: phosphorolysis of purine nucleoside substrates by purified enzyme
Type: biochemical, Bacillus stearothermophilus TH6-2
Measurement Conditions: 10 mM nucleoside, 50 mM potassium dihydrogenphosphate, pH 8.0, 50° C., 10 minutes
Numbers only, in μmol/10 min..

Guide cases for Amount of Base Formed, answers given:
Nc1ncnc2c1ncn2[C@@H]1O[C@H](CO)C[C@H]1O: 0
OC[C@H]1O[C@@H](n2cnc3c(O)ncnc32)[C@H](O)[C@@H]1O: 2.55
Nc1nc2c(ncn2[C@@H]2O[C@H](CO)[C@@H](O)[C@H]2O)c(=O)[nH]1: 2.15
OC[C@@H]1C[C@@H](O)[C@H](n2cnc3c(O)ncnc32)O1: 0
Nc1ncnc2c1ncn2[C@H]1C[C@H](O)[C@@H](CO)O1: 0

Take each entry in turn and give its Amount of Base Formed.
1. Nc1nc2c(ncn2[C@H]2C[C@H](O)[C@@H](CO)O2)c(=O)[nH]1
2. OC[C@H]1O[C@@H](n2cnc3c(O)ncnc32)C[C@@H]1O
3. Nc1ncnc2c1ncn2[C@@H]1O[C@H](CO)[C@@H](O)[C@H]1O

[reply]
1. 2.18
2. 2.54
3. 0.15

---

Measurement Target: pyrimidine nucleoside phosphorylase (Geobacillus stearothermophilus)
Construct: nucleoside phosphorylase obtained by extraction/purification from Bacillus stearothermophilus TH6-2; endogenous in cells; host or cells: Bacillus stearothermophilus TH6-2 (FERM BP-2758), enzyme purified in house from the wild cells
Run Description: Substrate specificity: phosphorolysis of pyrimidine nucleoside substrates by purified enzyme
Assay type: biochemical, Bacillus stearothermophilus TH6-2
Measurement Conditions: 10 mM nucleoside, 50 mM potassium dihydrogenphosphate, pH 8.0, 50° C., 10 minutes
Readout Kind: Amount of Base Formed (μmol/10 min.)
Give bare numbers, in μmol/10 min..

Take each entry in turn and give its Amount of Base Formed.
1. Nc1ccn([C@H]2C[C@H](O)[C@@H](CO)O2)c(=O)n1 [2'-Deoxycytidine]
2. Cc1cn([C@H]2C[C@H](O)[C@@H](CO)O2)c(=O)[nH]c1=O [Thymidine]

[reply]
1: 0; 2: 1.71
